- assay system: GCase (Homo sapiens, UniProt P04062)
- Construct: endogenous in cells; host or cells: HeLa cells
- protocol: activation of GCase in a live cell PFB assay in HELA cells
- Type: cell-based
- test settings: activation of GCase, EC50 ranges
pEC50: −log10 of the molar value.
quantity: pEC50

Recorded pEC50, per entry:
>>> print(df.to_string())
                                   compound                          assay_system  value_observed
0  FC(F)(F)Cn1ncc2ncc(N3CC4(CCCN(c5ccc(C(F)(F)F)nc5)C4)C3)nc21 [Compound 136]  GCase (Homo sapiens, UniProt P04062)    4.30 to 5.00
1  Fc1ncc(C(F)(F)F)nc1N1CCC2(CCN(c3cnc4cnn(CC(F)F)c4n3)CC2)C1 [Cmpd 766]  GCase (Homo sapiens, UniProt P04062)          > 5.00
2  O=C1N(c2cccc(C(F)(F)F)n2)CCC12CCCN(c1cnc3cnn(CC(F)F)c3n1)C2 (stereo not shown) [Compound 96]  GCase (Homo sapiens, UniProt P04062)    4.30 to 5.00

Look up pEC50 with GCase (Homo sapiens, UniProt P04062) for this compound: FC(F)Cn1ncc2ncc(N3CCC4(CN(c5cncc(C(F)(F)F)n5)C4)C3)nc21 [Cmpd 298]
< 4.00

Under GCase (Homo sapiens, UniProt P04062): pEC50 value of Cc1nc(N2CC3(CCN(c4cnc5cnn(C)c5n4)C3)C2)cc(C(F)(F)F)n1 [Cmpd 649] ?
4.30 to 5.00

Hello, I am looking for reported pEC50 with GCase (Homo sapiens, UniProt P04062) for FC(F)Cn1ncc2ncc(N3CCC4(CC3)CN(c3cnccc3C(F)(F)F)C4)nc21 [Compound 76] . Could you help?
> 5.00

What is its pEC50 for GCase (Homo sapiens, UniProt P04062)? Entry: CC1CN(c2cnc3cnn(CC(F)F)c3n2)CCC12CC(=O)N(c1cc(C(F)(F)F)ccn1)C2 (stereo not shown) [Cmpd 725]
4.30 to 5.00

Missing value: pEC50, GCase (Homo sapiens, UniProt P04062), entry O=C1CC2(CCN(c3cncc(-c4nncs4)n3)CC2)CN1c1cncc(C(F)(F)F)c1 [Cmpd 237] . Fill in?
4.30 to 5.00

====

Measured pEC50, listed per entry for reference.
- assay system: GCase (Homo sapiens, UniProt P04062)
- Construct: endogenous in cells; host or cells: HeLa cells
- protocol: activation of GCase in a live cell PFB assay in HELA cells
- Assay type: cell-based
- test settings: activation of GCase, EC50 ranges
pEC50: −log10 of the molar value.

Answered examples (2):
                                   compound                          assay_system  value_observed
0  O=C1CC2(CCN(c3cnc4cnn(CC(F)F)c4n3)CC2)CN1Cc1ncc(C(F)(F)F)cc1F  GCase (Homo sapiens, UniProt P04062)          > 5.00
1  COc1nn(CC(F)F)c2nc(N3CCC4(CN(c5cc(C(F)(F)F)nc(C)n5)C4)C3)cnc12  GCase (Homo sapiens, UniProt P04062)    4.30 to 5.00

Looking for the measured pEC50 of O=C1N(c2cnc3cnn(CC(F)F)c3n2)CCC12CCN(c1ccc(C(F)(F)F)cn1)CC2 , can you help?
> 5.00

So what's the measured pEC50 for this one? Cc1nc(N2CCC3(CCN(c4cncc(-c5nncs5)n4)C3)C2)cc(C(F)(F)F)n1 (stereo not shown)
4.30 to 5.00

====

- assay system: GCase (Homo sapiens, UniProt P04062)
- Construct: endogenous in cells; host or cells: HeLa cells
- Sequence (P04062 40-536): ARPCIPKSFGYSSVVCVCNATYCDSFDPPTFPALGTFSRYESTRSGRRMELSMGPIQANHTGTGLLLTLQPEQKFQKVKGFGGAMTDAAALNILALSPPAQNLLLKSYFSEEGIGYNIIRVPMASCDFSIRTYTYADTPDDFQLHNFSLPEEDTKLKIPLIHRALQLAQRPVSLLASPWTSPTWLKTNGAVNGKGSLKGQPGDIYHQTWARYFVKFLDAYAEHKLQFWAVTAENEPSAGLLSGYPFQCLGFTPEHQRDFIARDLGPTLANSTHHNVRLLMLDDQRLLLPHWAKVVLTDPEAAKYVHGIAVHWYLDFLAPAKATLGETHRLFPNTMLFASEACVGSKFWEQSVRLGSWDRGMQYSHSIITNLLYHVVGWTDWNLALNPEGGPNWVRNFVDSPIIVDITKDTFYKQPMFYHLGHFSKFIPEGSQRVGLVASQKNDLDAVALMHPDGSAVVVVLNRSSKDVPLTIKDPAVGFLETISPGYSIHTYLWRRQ
- protocol: activation of GCase in a live cell PFB assay in HELA cells
- Type: cell-based
- test settings: activation of GCase, EC50 ranges
The entries below are paired with their reported EC50.

Use these answered entries as a reference point.
>>> df
                                   compound  quantity  value_observed
0  FC(F)(F)c1ncc(N2CC3(CCN(c4cnc5cnn(C6CCCCO6)c5n4)C3)C2)cn1 (stereo not shown)      EC50     10 to 50 µM
1  Cc1ncc(-c2nncs2)nc1N1CCC2(CN(c3ccnc(C(F)(F)F)c3)C2)C1      EC50         < 10 µM
2  Cc1nc2cnn(CC(F)F)c2nc1N1CCC2(CN(c3ccnc(C(F)(F)F)c3)C2)C1      EC50         < 10 µM
3  O=C1N(c2cnc3cnn(CC(F)F)c3n2)CCC12CCN(c1cncc(C(F)(F)F)c1)CC2      EC50         < 10 µM
4  CCn1cc(N2CCC3(CCN(c4cnc5cnn(CC(F)F)c5n4)CC3)C2=O)ccc1=O      EC50     10 to 50 µM
5  CCN1C(=O)N(c2ccc(C(F)(F)F)nc2)C(=O)C12CCN(c1cnc3c(C)nn(C4COC4)c3n1)CC2      EC50        > 100 µM
6  Cc1cn2nc(N3CCC4(CN(c5cc(C(F)(F)F)nc(C)n5)C4)C3)ccc2n1      EC50     10 to 50 µM
7  Cc1ncc(N2CCC3(CCN(c4ncc5c(C)nn(CC(F)(F)F)c5n4)C3)C2)c(C(F)(F)F)n1 (stereo not shown)      EC50     10 to 50 µM

For FC(F)Cn1ncc2ncc(N3CCC4(CCC(Oc5cncc(C(F)(F)F)c5)C4)CC3)nc21 (stereo not shown) , what is its reported EC50?
10 to 50 µM

Which EC50 is listed for Cn1c(N2CCC3(CC2)CC(=O)N(c2ccc(C(F)(F)F)nc2)C3)nc2c(cnn2CC(F)F)c1=O ?
10 to 50 µM

====

- assay system: GCase (Homo sapiens, UniProt P04062)
- Construct: endogenous in cells; host or cells: HeLa cells
- protocol: activation of GCase in a live cell PFB assay in HELA cells
- Assay type: cell-based
- test settings: EC50 given as range classes
// reported EC50 per item

Reference set (2 entries):
In [3]: df
Out[3]:
                               input_smiles  value_observed
0  FC(F)(F)c1cc(N2CC3(CCN(c4cncc(-c5cncs5)n4)C3)C2)ccn1         < 10 µM
1  O=S(=O)(c1cncc(C(F)(F)F)c1)N1CC2(CCN(c3cnc4cnn(CC(F)F)c4n3)C2)C1         < 10 µM

Here is the next item to consider.
# EC50 lookup, item FC(F)(F)c1cc(N2CC3(CCN(c4cncc(-c5nccs5)n4)C3)C2)ccn1
10 to 50 µM

====

- assay system: GCase (Homo sapiens)
- Construct: endogenous in cells; host or cells: HeLa cells
- protocol: activation of GCase in a live cell PFB assay in HELA cells
- Format: cell-based
- test settings: activation of GCase, EC50 ranges
- Method: Exemplary compounds were evaluated for activation of GCase in a live cell PFB assay in HELA cells (essentially as described in Ysselstein et al., “LRRK2 kinase activity regulates lysosomal glucocerebrosidase in neurons derived from Parkinson's disease patients” Nature Communications (2019) 10:5570). […] EC50 ranges: A: <10 μM; B: >10-50 μM; C: >50-100 μM; D: >100 μM.
pEC50: −log10 of the molar value.
quantity: pEC50

Below: 6 molecules and their reported pEC50.
>>> df
                               input_smiles  quantity  value_observed
0  CCN1C(=O)N(c2ccc(C(F)(F)F)nc2)C(=O)C12CCN(c1ncc3cnn(CC(F)F)c3n1)CC2     pEC50    4.30 to 5.00
1  O=C1N(c2cc(C(F)(F)F)ccn2)C(=O)C2(CCN(c3cnc4cnn(CC(F)F)c4n3)CC2)N1Cc1ccc(F)cc1F     pEC50          > 5.00
2  FC(F)(F)c1cc(N2CCC3(CCN(c4cnc5cnn(C6COC6)c5n4)CC3)C2)cnn1     pEC50          > 5.00
3  O=C1N(c2ccnc(C(F)(F)F)c2)CCC12CCN(c1cnc3cnn(CC(F)F)c3n1)CC2     pEC50          > 5.00
4  O=C1N(c2cc(C(F)(F)F)ccn2)CCC12CCN(c1cncc(-c3nncs3)n1)CC2     pEC50          > 5.00
5  O=C1N(Cc2ccc(C(F)(F)F)nc2)CCC12CCN(c1cnc3cnn(CC(F)F)c3n1)CC2     pEC50    4.30 to 5.00

Could you share which pEC50 value was measured for FC(F)Cn1ncc2ncc(N3CCC4(CN(c5ccnc(OC(F)F)c5)C4)C3)nc21 ?
> 5.00

Using the record for Cc1cc(N2CC3(CCN(c4cnc5cnn(C6COC6)c5n4)C3)C2)nc(C)n1 , report its pEC50.
4.30 to 5.00

Please report the recorded pEC50 for Cc1nc(N2CCC3(CCN(c4nc5c(cnn5CC(F)F)c(=O)n4CC4CC4)CC3)C2)cc(C(F)(F)F)n1 .
> 5.00

What value of pEC50 has been recorded for this entry: FC(F)Cn1ncc2ncc(N3CCC4(CC3)CC(Oc3ccncc3C(F)(F)F)C4)nc21
> 5.00

Which pEC50 reading was recorded for the molecule O=C1N(c2nnc(C(F)(F)F)s2)CCC12CCN(c1cnc3cnn(CC(F)F)c3n1)CC2 ?
> 5.00

If you can, please state the reported pEC50 value of O=C1N(c2cc(C(F)(F)F)ccn2)C(=O)C2(CCN(c3cnc4cnn(CC(F)F)c4n3)CC2)N1Cc1ccccc1 .
> 5.00

For O=C1N(c2cnc3cnn(CC(F)F)c3n2)CCC12CCN(c1ccnc(C(F)(F)F)c1)CC2 , what is its reported pEC50?
4.30 to 5.00
